Where do the numbers come from? From PubChem BioAssay.

Assay: drug combination growth inhibition, ovarian cancer – cell-based, oncology-focused library, rucaparib conditional, profiling panel (AID 1508598)
Conditions: patient-derived ovarian cancer cells, CellTiter-Glo viability, 144 h; at 0.0781 µM; OCI-P5x cells; with rucaparib 20 µM; hits give low values; 100% = cells with rucaparib alone
Reported endpoint: viability (%)
Give bare numbers, in %.

Some molecules with recorded viability:
[
  {
    "Compound structure string": "COc1c(C)cnc(Cn2cnc3c(Cl)nc(N)nc32)c1C",
    "Unit string": "%",
    "viability": 33.6
  },
  {
    "Compound structure string": "CCC(CC)CC1(C(=O)Nc2ccccc2SC(=O)C(C)C)CCCCC1",
    "Unit string": "%",
    "viability": 104
  },
  {
    "Compound structure string": "Nc1ccn([C@@H]2O[C@H](CO)[C@@H](O)C2(F)F)c(=O)n1",
    "Unit string": "%",
    "viability": 50.9
  },
  {
    "Compound structure string": "Nc1ccc(C(=O)Nc2cccc(-c3nc(N4CCOCC4)c4oc5ncccc5c4n3)c2)cn1",
    "Unit string": "%",
    "viability": 114
  }
]

Turning now to a further molecule:
// viability lookup, key: "Cc1cc(N2CCOCC2)cc2[nH]c(-c3c(NC[C@@H](O)c4cccc(Cl)c4)cc[nH]c3=O)nc12"
118
